These measurements were taken from PubChem BioAssay (Tox21).

# EXPERIMENT: qHTS assay for small molecule agonists of the antioxidant response element (ARE) signaling pathway (AID 743202)
# CONDITION: HepG2 ARE-bla reporter, beta-lactamase FRET, 16 h; series mostly up to 73.3 µM
Records with an inconclusive call do not appear. Calls of active or inactive are those of the source. Calls follow the shape of the dose curve; as a rule, active = well fitted activation curve with a large enough effect in the signal ratio in the repeat runs (not every such curve was filed as active); inconclusive = weak or mixed curves, or effect the other way; inactive = no such curve, though single readings can be large or run the other way; the % refers to the signal ratio.
Give one outcome, nothing more. List: active, inactive

These recorded examples may help you get a feel for the data.
O=C(O)CCc1nc2ccccc2[nH]1    inactive
CCCCCC1CCC(=O)O1 (centres undefined)    inactive
CCCC(=O)OCCC(C)C    inactive
O=C(O)COCC(=O)O    inactive
Clc1ccccc1-c1nc(-c2ccncc2)no1    active
NC(=O)c1ccccc1    inactive
O=C(OC1C[C@H]2CC[C@@H](C1)[N+]21CCCC1)C(O)(c1ccccc1)c1ccccc1 (some centres undefined)    inactive
Cc1ccc2ccccc2c1[N+](=O)[O-]    inactive
CCC(=O)O[C@]1(C(=O)COC)[C@@H](C)C[C@H]2[C@@H]3CCC4=CC(=O)C=C[C@]4(C)C3(F)[C@@H](O)C[C@@]21C (some centres undefined)    inactive
N#CCCCC(C#N)CCC#N (centres undefined)    inactive

Query block: Called result for `CC(C)(C)c1ccc(CCC=O)cc1`
Result block: inactive

Query block: Called result for `N#Cc1ccc(CC(=O)c2cccc(C(F)(F)F)c2)cc1`
Result block: inactive

Query block: Called result for `NCCOCCOCCN`
Result block: active

Query block: Called result for N#C[C@@H]1CC(F)(F)CN1C(=O)CNC1CC2CCC(C1)N2c1ncccn1 (some centres undefined)
Result block: inactive

Query block: Called result for `CCCCCCCCNC`
Result block: inactive

Query block: Called result for Cc1ccc(Cl)c(OCC(O)CNC(C)(C)C)c1 (centres undefined)
Result block: inactive

Query block: Called result for `O=C(Cl)c1ccc(F)c(Cl)c1`
Result block: inactive

Query block: Called result for `C=CCCC`
Result block: inactive

Query block: Called result for `O=C1c2ccccc2C(=O)C1c1ccc2cc(S(=O)(=O)O)cc(S(=O)(=O)O)c2n1`
Result block: active

Query block: Called result for `O=[N+]([O-])c1cccc(I)c1`
Result block: inactive

Query block: Called result for `CC(=O)c1ccc(Cl)c(Cl)c1Cl`
Result block: inactive

Query block: Called result for CCc1ccc(C(=O)C(C)CN2CCCCC2)cc1 (centres undefined)
Result block: active

Query block: Called result for `C=C(C)C(=O)OCCCCCCCCCCOC(=O)C(=C)C`
Result block: inactive

Query block: Called result for `CC1(C)CC(O)CC(C)(C)N1[O]`
Result block: inactive

* * *

# TGT: Progesterone receptor (Homo sapiens)
# EXPERIMENT: qHTS assay to identify small molecule agonists of the progesterone receptor (PR) signaling pathway (AID 1346784); also: nearly all actives have a fitted effect of over 30% in size
# CONDITION: PR-UAS-bla HEK293T, beta-lactamase FRET ratio, 16 h; series mostly up to 92.4 µM
# Description: U.S. Tox21 Program National Center for Advancing Translational Sciences [NCATS] NIH Chemical Genomics Center [NCGC] U.S. Environmental Protection Agency [EPA] National Institutes of Environmental Health Sciences [NIEHS] National Toxicology Program [NTP] U.S. Food and Drug Administration [FDA] […] Endocrine disrupting chemicals (EDCs) and their interactions with steroid hormone receptors like PR causes disruption of normal endocrine function. […]
Records with an inconclusive call do not appear. Active and inactive are the calls of the source. Calls follow the shape of the full dose curve.
Give one outcome, nothing more. List: YES for active, NO for inactive

FC1(F)C(F)(F)C(F)(F)C2(F)C(F)(C1(F)F)C(F)(F)C(F)(F)C1(F)C(F)(F)C(F)(F)C(F)(F)C(F)(F)C12F (stereo not drawn)    NO
CCc1ccc2c(c1)C(=O)c1ccccc1C2=O    NO

Query block: Called result for `CC(C)CCCCCCCOC(=O)c1ccc(C(=O)OCCCCCCCC(C)C)c(C(=O)OCCCCCCCC(C)C)c1`
Result block: NO

Query block: Called result for `CNc1ccccc1`
Result block: NO

Query block: Called result for CCCC1CCOC(C)S1 (stereo not drawn)
Result block: NO

Query block: Called result for `Nc1nc(Cl)nc2c1ncn2[C@H]1C[C@H](O)[C@@H](CO)O1`
Result block: NO

* * *

# TGT: Cytochrome P450 2C19 (Homo sapiens)
# EXPERIMENT: Cytochrome P450 Family 2 Subfamily C Member 19 (CYP2C19) small molecule antagonists: luciferase reporter qHTS assay (AID 1671197); also: nearly all actives have a fitted effect of over 65% in size; also: potency is read from the fitted curve at half-maximal effect
# CONDITION: P450-Glo CYP2C19 enzyme, luciferin luminescence, 1 h; series mostly up to 115 µM
Inconclusive results are not listed. Activity calls are given as the source filed them. Calls follow the shape of the dose curve; as a rule, active = well fitted inhibition curve with a large enough effect in the repeat runs; inconclusive = weak or mixed curves; inactive = no such curve, though single readings can be large or run the other way.
VALUE TYPE: Potency

CNc1ccccc1    31.7 µM (active)
Nc1ccc(-c2ccc(F)cc2)cc1    8.94 µM (active)
COc1cc(C)c(Cc2cnc(N)nc2N)cc1OC    inactive
Cc1ccc2c(Cl)cc(Cl)c(O)c2n1    inactive
O=C(O)c1cccnc1Nc1cccc(C(F)(F)F)c1    inactive
Cc1ccc2ccccc2c1[N+](=O)[O-]    79.6 µM (active)
O=C(Nc1ccc2c(c1)Cc1ccccc1-2)C(F)(F)F    17.8 µM (active)
O=C(O)c1ccccc1[N+](=O)[O-]    inactive
CCCCCCCCCCCCN1CCOCC1    inactive
CCCCCCC/C=C/C=O    79.6 µM (active)

Go through the list and state Potency for each entry.
1. COc1ccc(/C=C/S(=O)(=O)NC(=O)c2ccc(C)cc2Cl)cc1
2. CC(C)(O)C(=O)O
3. FC1(F)C(F)(F)C(F)(F)C2(F)C(F)(C1(F)F)C(F)(F)C(F)(F)C1(F)C(F)(F)C(F)(F)C(F)(F)C(F)(F)C12F (configuration not stated)
4. CO[C@@H]1[C@@H](O[C@@H]2O[C@H](C)[C@@H](O[C@H]3C[C@@](C)(O)[C@@H](O)[C@H](C)O3)[C@H](N(C)C)[C@H]2O)[C@@H](CC=O)C[C@@H](C)[C@@H](O[C@@H]2CC[C@H](N(C)C)[C@@H](C)O2)/C=C/C=C/C[C@@H](C)OC(=O)C[C@H]1OC(C)=O
5. CC(C)CC(C)(C)C
6. Nc1nc(Cl)nc2c1ncn2[C@H]1C[C@H](O)[C@@H](CO)O1
7. N#Cc1ccc(CC(=O)c2cccc(C(F)(F)F)c2)cc1

Result block:
inactive
inactive
inactive
inactive
20.8 µM (active)
inactive
20 µM (active)

Go through the list and state Potency for each entry.
1. O=C(N[C@@H](Cc1ccccc1)[C@@H](O)C(=O)N1C[C@@H](O)[C@@H](O)C1)c1cc2cc(Cl)ccc2[nH]1
2. O=C(O)c1cc(C(=O)O)c(C(=O)O)cc1C(=O)O
3. Cc1cc(C)c(C)c(O)c1
4. O=C(NC1CCN(CCc2c[nH]c3ccccc23)CC1)c1ccccc1
5. O=C(O)c1cccc(C(=O)O)c1C(=O)O
6. Cc1c(N=C=O)cccc1N=C=O
7. CCCCCO

Result block:
["39.9 µM (active)", "inactive", "inactive", "inactive", "71.7 µM (active)", "72.4 µM (active)", "inactive"]

Go through the list and state Potency for each entry.
1. CC(CCl)OC(C)CCl (configuration not stated)
2. CCCCCCOC(=O)c1ccccc1
3. CCCC(=O)OCCC(C)C
4. CC(=O)OCC(=O)[C@@]1(O)CC[C@H]2[C@@H]3CCC4=CC(=O)C=C[C@]4(C)[C@@]3(F)[C@@H](O)C[C@@]21C

Result block:
inactive
inactive
inactive
inactive

Go through the list and state Potency for each entry.
1. CCOC(=O)CC(O)(CC(=O)OCC)C(=O)OCC
2. O=S(=O)(O)c1cc(Cl)c(Cl)cc1Cl
3. NC(=O)c1ccccc1C(N)=O
4. C=CC(O)CCCCC (configuration not stated)
5. c1ccc(CN(Cc2ccccc2)Cc2ccccc2)cc1
6. CC(C)(Cc1c[nH]c2ccccc12)NCC(O)COc1ccccc1C#N (configuration not stated)

Result block:
1: 35.6 µM (active); 2: inactive; 3: 40.1 µM (active); 4: inactive; 5: 5.64 µM (active); 6: inactive

Go through the list and state Potency for each entry.
1. Nc1cccc2c(=O)[nH][nH]c(=O)c12
2. C[C@H]1C[C@H]2[C@@H]3CCC4=CC(=O)C=C[C@]4(C)[C@@]3(F)[C@@H](O)C[C@]2(C)[C@@]1(O)C(=O)COP(=O)(O)O
3. CC/C=C/CCO

Result block:
inactive
inactive
inactive

* * *

# EXPERIMENT: qHTS assay to identify small molecule agonists of the retinoic acid receptor (RAR) signaling pathway (AID 1159553)
# CONDITION: C3RL4 RARE luciferase reporter, agonist, 6 h; series mostly up to 73.3 µM
Results filed as inconclusive are left out. Active and inactive are the calls of the source. Calls come from the whole dose curve; as a rule, active = well fitted activation curve with a large enough effect in the repeat runs; inconclusive = weak or mixed curves, or effect the other way; inactive = no such curve, though single readings can be large or run the other way.
Give one outcome, nothing more. List: y (active), n (inactive)

These recorded examples may help you get a feel for the data.
O=C(OC1C[C@H]2CC[C@@H](C1)[N+]21CCCC1)C(O)(c1ccccc1)c1ccccc1 (some centres undefined)    n
CC(=O)Nc1cccc(N)c1    n

Query block: Called result for `O=C(O)c1ccc(O)c(O)c1`
Result block: n

Query block: Called result for `NC(=O)c1cc[n+](CC2=C(C(=O)[O-])N3C(=O)[C@@H](NC(=O)Cc4cccs4)[C@H]3SC2)cc1`
Result block: n

Query block: Called result for `O=C(N[C@@H](Cc1ccccc1)[C@@H](O)C(=O)N1C[C@@H](O)[C@@H](O)C1)c1cc2cc(Cl)ccc2[nH]1`
Result block: n

Query block: Called result for `Cc1ccc2ccccc2c1[N+](=O)[O-]`
Result block: n

Query block: Called result for C=CC(C)CCC=C(C)C (centres undefined)
Result block: n

Query block: Called result for `O=Cc1ccc([N+](=O)[O-])cc1`
Result block: y

Query block: Called result for CC(C)=CCCC(C)C=O (centres undefined)
Result block: n

Query block: Called result for `CC(C)Cc1nccs1`
Result block: n

Query block: Called result for `CCOCCn1c(N2CCCN(C)CC2)nc2ccccc21`
Result block: n
